# log1/Ki per entry
- Test method notes: Inhibition of chymotrypsin (unknown origin)
- Assay conditions: Homo sapiens
No unit in the answer, only the number.

Structure notation: C1=CCCCC1
Measured result: 2.07

Structure notation: O=C(O)CCc1ccccc1
Measured result: 2.79

Structure notation: Cc1cccc(C(=O)O)c1
Measured result: 2.42

Next up:
log1/Ki lookup needed for CCCCC , thanks. 2.25

---

# log(1/Km) per entry
- Test method notes: Binding affinity to chymotrypsin (unknown origin)
- Assay conditions: Homo sapiens

Past entries and their recorded results:
Structure notation: CCOC(=O)C(NC(C)=O)C(=O)OCC
log(1/Km): 1.51

Structure notation: COC(=O)[C@@H](NC(C)=O)C(C)C
log(1/Km): 0.95

Structure notation: O=C(N[C@H](Cc1ccccc1)C(=O)Oc1ccc([N+](=O)[O-])cc1)OCc1ccccc1
log(1/Km): 6.42

Structure notation: CCCOC(=O)CNC(=O)c1ccccc1
log(1/Km): 2.72

Next up:
log(1/Km) lookup needed for CCC[C@H](NC(C)=O)C(=O)OC , thanks. 1.99
